Molecular target: T1, cynomolgus monkey transferrin receptor 1 (cTfR1) (cynomolgus monkey, UniProt H9EXL1 89-760 (rhesus entry))
T1 construct: The ELISA against cTfR1 is not described in the text
T1 sequence (chain, as listed by the source): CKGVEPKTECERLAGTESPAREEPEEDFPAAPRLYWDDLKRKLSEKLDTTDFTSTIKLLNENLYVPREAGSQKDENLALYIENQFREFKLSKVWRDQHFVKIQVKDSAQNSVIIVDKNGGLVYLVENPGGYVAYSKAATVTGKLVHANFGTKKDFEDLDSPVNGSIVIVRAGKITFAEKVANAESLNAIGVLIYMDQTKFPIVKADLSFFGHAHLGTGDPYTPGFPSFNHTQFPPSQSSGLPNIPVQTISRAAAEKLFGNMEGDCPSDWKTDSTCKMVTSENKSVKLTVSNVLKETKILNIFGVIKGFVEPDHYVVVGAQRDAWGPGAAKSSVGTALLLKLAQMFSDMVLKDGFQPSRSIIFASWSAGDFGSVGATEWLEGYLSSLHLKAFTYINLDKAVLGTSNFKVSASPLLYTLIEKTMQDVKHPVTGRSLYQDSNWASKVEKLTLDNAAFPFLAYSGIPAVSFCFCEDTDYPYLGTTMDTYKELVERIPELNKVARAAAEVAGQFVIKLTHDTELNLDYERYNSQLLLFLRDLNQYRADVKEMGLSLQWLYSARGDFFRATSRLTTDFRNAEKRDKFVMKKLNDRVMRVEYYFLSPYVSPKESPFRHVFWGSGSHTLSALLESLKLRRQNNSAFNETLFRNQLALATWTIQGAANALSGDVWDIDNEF
Experiment: competition phage ELISA (phage-displayed Fab)
Here the recorded Kd is given for each entry.
Give the number; nM is assumed, so skip it.

[
  {
    "binder": "Fab0060 (Fab, V domains shown) VH: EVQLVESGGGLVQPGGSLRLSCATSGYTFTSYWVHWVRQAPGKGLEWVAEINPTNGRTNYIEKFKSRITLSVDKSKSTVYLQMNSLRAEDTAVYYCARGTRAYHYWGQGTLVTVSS VL: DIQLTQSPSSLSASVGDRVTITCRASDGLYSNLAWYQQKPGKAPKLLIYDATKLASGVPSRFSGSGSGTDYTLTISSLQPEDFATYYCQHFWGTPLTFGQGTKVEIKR",
    "Kd / nM": 1.56
  }
]

What value of Kd has been recorded for this entry: Fab0065 (Fab, V domains shown) VH: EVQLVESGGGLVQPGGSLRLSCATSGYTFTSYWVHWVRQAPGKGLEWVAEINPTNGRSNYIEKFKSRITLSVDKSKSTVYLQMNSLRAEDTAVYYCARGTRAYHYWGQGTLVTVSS VL: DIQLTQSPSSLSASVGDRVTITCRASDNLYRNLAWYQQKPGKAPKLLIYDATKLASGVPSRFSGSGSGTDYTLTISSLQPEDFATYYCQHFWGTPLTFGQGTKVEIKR
0.57

Form field: reported Kd of Fab0073 (Fab, V domains shown) VH: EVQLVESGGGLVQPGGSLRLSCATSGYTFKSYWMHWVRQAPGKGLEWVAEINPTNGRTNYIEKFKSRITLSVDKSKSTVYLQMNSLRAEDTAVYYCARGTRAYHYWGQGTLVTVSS VL: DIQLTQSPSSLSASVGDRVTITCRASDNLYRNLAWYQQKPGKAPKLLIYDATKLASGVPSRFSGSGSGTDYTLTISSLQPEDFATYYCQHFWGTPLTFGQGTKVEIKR
1.95

Param item = Fab0070 (Fab, V domains shown) VH: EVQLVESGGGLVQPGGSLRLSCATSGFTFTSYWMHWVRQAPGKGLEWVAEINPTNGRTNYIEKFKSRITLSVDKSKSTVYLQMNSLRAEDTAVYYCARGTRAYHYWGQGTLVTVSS VL: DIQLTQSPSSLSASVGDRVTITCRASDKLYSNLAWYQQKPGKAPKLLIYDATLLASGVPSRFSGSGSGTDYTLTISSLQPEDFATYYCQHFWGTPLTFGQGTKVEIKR ; retrieve measured Kd.
1.39

Returns the measured Kd for the input binder. Input: Fab0067 (Fab, V domains shown) VH: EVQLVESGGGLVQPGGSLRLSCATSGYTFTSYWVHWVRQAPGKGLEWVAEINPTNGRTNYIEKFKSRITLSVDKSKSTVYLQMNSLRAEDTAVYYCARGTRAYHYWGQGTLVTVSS VL: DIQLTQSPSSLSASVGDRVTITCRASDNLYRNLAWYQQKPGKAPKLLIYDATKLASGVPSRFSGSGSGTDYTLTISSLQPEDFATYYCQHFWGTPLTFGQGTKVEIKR
0.95
